Recorded Kd, one value per entry.
target: cynomolgus FKN-SEAP (human;); experiment: BIACORE
I only need the number, in pM, no unit after it.

Check out these entries, answers already filled in.
Q) Looking for the measured Kd of H3L4 (antibody, V domains shown) VH: QVQLVQSGAEVKKPGASVKVSCKASGYTFTNYYIHWVKQAPGQGLEWIGWIYPGDGSPKFNERFKGRTTLTADKSTNTAYMLLSSLRSDDTAVYFCATGPTDGDYFDYWGQGTTVTVSS VL: DIQMTQSPSSLSASVGDRVTITCRASGNIHNFLAWYQQKPGKAPKLLIYNEKTLADGVPSRFSGSGSGTDYTLTISSLQPEDFATYFCQQFWSTPYTFGGGTKVEIK , can you help?
A) 12

Q) Looking for the measured Kd of chimeric (antibody, V domains shown) VH: QVQLQQSGPELVKPGASVKMSCKASGYTFTNYYIHWVKQRPGQGLEWIGWIYPGDGSPKFNERFKGKTTLTADKSSNTAYMLLSSLTSEDSAIYFCATGPTDGDYFDYWGQGTTLTVSS VL: DIQMTQSPASLSASVGETVTITCRASGNIHNFLAWYQQKQGKSPQFLVYNEKTLADGVPSRFSGSGSGTQYSLKINSLQPEDFGIYFCQQFWSTPYTFGGGTKLEIK , can you help?
A) 6.62

Q) Looking for the measured Kd of H3-2L4 (antibody, V domains shown) VH: QVQLVQSGAEVKKPGASVKVSCKASGYTFTNYYIHWVKQAPGQGLEWIGWIYPGDGSPKFNERFKGRTTLTADKSTNTAYMLLSSLRSEDTAVYFCATGPTDGDYFDYWGQGTTVTVSS VL: DIQMTQSPSSLSASVGDRVTITCRASGNIHNFLAWYQQKPGKAPKLLIYNEKTLADGVPSRFSGSGSGTDYTLTISSLQPEDFATYFCQQFWSTPYTFGGGTKVEIK , can you help?
A) 7.71

New cases:
Q) Looking for the measured Kd of HK2L4 (antibody, V domains shown) VH: QVQLVQSGAEVKKPGASVKVSCKASGYTFTNYYIHWVRQAPGQGLEWIGWIYPGDGSPKFNERFKGRTTMTADTSTSTAYMELSSLRSEDTAVYFCARGPTDGDYFDYWGQGTTVTVSS VL: DIQMTQSPSSLSASVGDRVTITCRASGNIHNFLAWYQQKPGKAPKLLIYNEKTLADGVPSRFSGSGSGTDYTLTISSLQPEDFATYFCQQFWSTPYTFGGGTKVEIK , can you help?
A) 26

Q) Looking for the measured Kd of H3L2 (antibody, V domains shown) VH: QVQLVQSGAEVKKPGASVKVSCKASGYTFTNYYIHWVKQAPGQGLEWIGWIYPGDGSPKFNERFKGRTTLTADKSTNTAYMLLSSLRSDDTAVYFCATGPTDGDYFDYWGQGTTVTVSS VL: DIQMTQSPSSLSASVGDRVTITCRASGNIHNFLAWYQQKPGKAPKFLVYNEKTLADGVPSRFSGSGSGTQYTLTISSLQPEDFATYFCQQFWSTPYTFGGGTKVEIK , can you help?
A) 9.62

Q) Looking for the measured Kd of H3-2L2 (antibody, V domains shown) VH: QVQLVQSGAEVKKPGASVKVSCKASGYTFTNYYIHWVKQAPGQGLEWIGWIYPGDGSPKFNERFKGRTTLTADKSTNTAYMLLSSLRSEDTAVYFCATGPTDGDYFDYWGQGTTVTVSS VL: DIQMTQSPSSLSASVGDRVTITCRASGNIHNFLAWYQQKPGKAPKFLVYNEKTLADGVPSRFSGSGSGTQYTLTISSLQPEDFATYFCQQFWSTPYTFGGGTKVEIK , can you help?
A) 6.75
